Values from paper PMC3299889

target: HCV NS3/4A (Hepatitis C virus genotype 1a, UniProt P27958); type: biochemical
Sequence (P27958 1027-1657): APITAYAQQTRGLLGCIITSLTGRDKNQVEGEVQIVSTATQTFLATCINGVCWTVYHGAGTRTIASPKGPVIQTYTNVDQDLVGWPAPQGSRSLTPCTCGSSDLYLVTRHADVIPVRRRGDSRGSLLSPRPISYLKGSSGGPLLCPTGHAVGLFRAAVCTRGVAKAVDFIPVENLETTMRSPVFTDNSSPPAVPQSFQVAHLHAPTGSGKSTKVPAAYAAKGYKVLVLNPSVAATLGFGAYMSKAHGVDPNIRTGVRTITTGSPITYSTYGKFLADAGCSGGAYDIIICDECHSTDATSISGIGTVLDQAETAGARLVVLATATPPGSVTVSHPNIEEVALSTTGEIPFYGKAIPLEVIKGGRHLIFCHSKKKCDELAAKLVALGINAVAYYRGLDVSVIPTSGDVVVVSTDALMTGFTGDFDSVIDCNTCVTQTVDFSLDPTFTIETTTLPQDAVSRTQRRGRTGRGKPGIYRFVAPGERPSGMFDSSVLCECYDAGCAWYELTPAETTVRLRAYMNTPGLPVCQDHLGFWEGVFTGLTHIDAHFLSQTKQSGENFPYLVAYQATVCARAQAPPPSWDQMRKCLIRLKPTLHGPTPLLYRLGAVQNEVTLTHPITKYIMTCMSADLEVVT
Sequence (P27958 1658-1711 partner limits assumed): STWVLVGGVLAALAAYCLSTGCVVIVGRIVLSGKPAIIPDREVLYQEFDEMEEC
measure-name: Vmax (RFU/10 min)
Give bare numbers, in RFU/10 min.

{"columns": ["compound", "Vmax [RFU/10 min]"],
 "data": [
  ["O[C@@H](CS)[C@@H](O)CS (racemic) [DTT, dithiothreitol]", 181],
  ["N[C@@H](CCC(=O)N[C@@H](CS)C(=O)NCC(=O)O)C(=O)O [GSH, reduced glutathione]", 151],
  ["O=C(O)CCP(CCC(=O)O)CCC(=O)O [TCEP, tris(2-carboxyethyl)phosphine]", 75]
]}

Consider the record given below.
Request: GET /values?readout=Vmax&item= OCCS [β-MCE, β-mercaptoethanol]
Response: 161

====

biological target: SARS-CoV 3CLpro (Severe acute respiratory syndrome coronavirus); format: biochemical
measure-name: Vmax (RFU/10 min)
One number for each entry, in RFU/10 min.

Reference set, count: 3
{"columns": ["compound", "study-system", "Vmax (RFU/10 min)"],
 "data": [
  ["O[C@@H](CS)[C@@H](O)CS (racemic)", "SARS-CoV 3CLpro (Severe acute respiratory syndrome coronavirus)", 435],
  ["N[C@@H](CCC(=O)N[C@@H](CS)C(=O)NCC(=O)O)C(=O)O", "SARS-CoV 3CLpro (Severe acute respiratory syndrome coronavirus)", 516],
  ["O=C(O)CCP(CCC(=O)O)CCC(=O)O", "SARS-CoV 3CLpro (Severe acute respiratory syndrome coronavirus)", 472]
]}

Consider the record given below.
Request: GET /values?readout=Vmax&item= `OCCS`
Response: 453

====

molecular target: SARS-CoV PLpro (Severe acute respiratory syndrome coronavirus, UniProt P0C6X7); type: biochemical
measure-name: Vmax
Kindly format the answer as number then unit.

Reference set, count: 3
{"columns": ["compound", "result"],
 "data": [
  ["O[C@@H](CS)[C@@H](O)CS (racemic)", "813 ± 36 RFU/10 min"],
  ["N[C@@H](CCC(=O)N[C@@H](CS)C(=O)NCC(=O)O)C(=O)O", "449 ± 14 RFU/10 min"],
  ["O=C(O)CCP(CCC(=O)O)CCC(=O)O", "441 ± 41 RFU/10 min"]
]}

Consider the record given below.
Request: GET /values?readout=Vmax&item= `OCCS`
Response: 438 ± 30 RFU/10 min
